- assay_target: MiDAC complex (HDAC1/2, DNTTIP1, CDYL, MIDEAS) (Homo sapiens, UniProt Q13547+Q92769)
- assay_name: Chemoproteomic binding profiling, K562 cell extract, SAHA/ITF2357 probe matrix (Kd app)
- Design: rows headed: Kd^app CDYL; other: protein CDYL; MiDAC complex
- test_settings: protein CDYL
property: Kd (µM)
Provide only the numeric value, understood in µM.

Exercise: Query for MiDAC complex (HDAC1/2, DNTTIP1, CDYL, MIDEAS) (Homo sapiens, UniProt Q13547+Q92769): what Kd does the record show for CCCCOc1ccc(CC(=O)NO)cc1 [bufexamac] ?
Solution: 151

====

Property: Kd; scope: individual compounds
- Tested on: CoREST complex
- assay_name: Chemoproteomic binding profiling, K562 cell extract, SAHA/ITF2357 probe matrix (Kd app)
- Set-up: species or system human
- test_settings: protein RCOR2; CoREST complex; read-out: Kd^app RCOR2
Write the answer as a number in µM, unit excluded.

Worked cases, answers included:
>  <compound>
CCCC(CCC)C(=O)O [valproate, valproic acid]

>  <Kd [µM]>
311

$$$$
>  <compound>
Nc1ccccc1NC(=O)CCCCCCC(=O)Nc1ccccc1

>  <Kd [µM]>
85

$$$$

Okay, now this compound:
Exercise: For CN(C)Cc1c(C(=O)NCCOc2ccc(C(=O)NO)cc2)oc2ccccc12 , what is its reported Kd?
Solution: 0.02

====

- Test system: NuRD complex
- assay_name: Chemoproteomic binding profiling, K562 cell extract, SAHA/ITF2357 probe matrix (Kd app)
- Parameters: species or system human
- test_settings: read-out: Kd^app GATAD2B
property: pKd
In textbook form, pKd equals minus log to base ten of the concentration in mol/L.

>  <molecular_string>
CC(/C=C/C(=O)NO)=C\[C@@H](C)C(=O)c1ccc(N(C)C)cc1

>  <pKd>
7.52

$$$$
>  <molecular_string>
Nc1ccccc1NC(=O)c1ccc(CNc2nccc(-c3cccnc3)n2)cc1

>  <pKd>
3.97

$$$$

Turning now to a further record.
Exercise: Please tell me: pKd of CC(=O)Nc1ccc(C(=O)Nc2ccccc2N)cc1 , system NuRD complex?
Solution: 3.51

====

- assay_target: PPP4C (Homo sapiens)
- Construct: endogenous in cells
- Sequence (P60510 1-307): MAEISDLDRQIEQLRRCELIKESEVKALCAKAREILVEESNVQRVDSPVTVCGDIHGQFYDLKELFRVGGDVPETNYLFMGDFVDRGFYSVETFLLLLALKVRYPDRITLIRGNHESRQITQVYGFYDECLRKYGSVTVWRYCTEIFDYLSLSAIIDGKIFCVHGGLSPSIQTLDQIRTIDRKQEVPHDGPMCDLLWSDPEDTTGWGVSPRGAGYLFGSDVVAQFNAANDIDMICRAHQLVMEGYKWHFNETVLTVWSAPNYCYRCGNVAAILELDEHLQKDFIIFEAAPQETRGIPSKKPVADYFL
- assay_name: Competition binding assay in cell lysate, affinity matrix, MS
- test_settings: PPP4C; Molt-4 cell lysate; read-out: IC50
property: IC50
Kindly write the number and append the unit.

Exercise: Look up IC50: CC(/C=C/C(=O)NO)=C\[C@@H](C)C(=O)c1ccc(N(C)C)cc1 [Trichostatin A]
Solution: 3000 nM

====

- assay_target: HDAC3 (Homo sapiens)
- Construct: used to probe endogenous HDACs in K562 whole cell extracts; endogenous in cells
- Sequence (O15379 whole entry): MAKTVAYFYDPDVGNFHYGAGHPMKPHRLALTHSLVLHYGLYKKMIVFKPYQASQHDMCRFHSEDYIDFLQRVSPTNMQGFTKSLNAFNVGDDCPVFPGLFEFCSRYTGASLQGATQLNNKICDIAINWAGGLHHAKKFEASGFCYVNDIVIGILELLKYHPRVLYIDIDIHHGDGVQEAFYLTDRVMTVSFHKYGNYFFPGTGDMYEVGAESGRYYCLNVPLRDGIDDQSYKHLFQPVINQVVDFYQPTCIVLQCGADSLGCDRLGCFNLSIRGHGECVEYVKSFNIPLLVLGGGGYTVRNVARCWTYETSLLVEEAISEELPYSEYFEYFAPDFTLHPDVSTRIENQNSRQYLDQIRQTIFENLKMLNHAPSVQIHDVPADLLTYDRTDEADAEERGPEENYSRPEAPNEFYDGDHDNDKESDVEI
- Sequence (O75376 whole entry partner): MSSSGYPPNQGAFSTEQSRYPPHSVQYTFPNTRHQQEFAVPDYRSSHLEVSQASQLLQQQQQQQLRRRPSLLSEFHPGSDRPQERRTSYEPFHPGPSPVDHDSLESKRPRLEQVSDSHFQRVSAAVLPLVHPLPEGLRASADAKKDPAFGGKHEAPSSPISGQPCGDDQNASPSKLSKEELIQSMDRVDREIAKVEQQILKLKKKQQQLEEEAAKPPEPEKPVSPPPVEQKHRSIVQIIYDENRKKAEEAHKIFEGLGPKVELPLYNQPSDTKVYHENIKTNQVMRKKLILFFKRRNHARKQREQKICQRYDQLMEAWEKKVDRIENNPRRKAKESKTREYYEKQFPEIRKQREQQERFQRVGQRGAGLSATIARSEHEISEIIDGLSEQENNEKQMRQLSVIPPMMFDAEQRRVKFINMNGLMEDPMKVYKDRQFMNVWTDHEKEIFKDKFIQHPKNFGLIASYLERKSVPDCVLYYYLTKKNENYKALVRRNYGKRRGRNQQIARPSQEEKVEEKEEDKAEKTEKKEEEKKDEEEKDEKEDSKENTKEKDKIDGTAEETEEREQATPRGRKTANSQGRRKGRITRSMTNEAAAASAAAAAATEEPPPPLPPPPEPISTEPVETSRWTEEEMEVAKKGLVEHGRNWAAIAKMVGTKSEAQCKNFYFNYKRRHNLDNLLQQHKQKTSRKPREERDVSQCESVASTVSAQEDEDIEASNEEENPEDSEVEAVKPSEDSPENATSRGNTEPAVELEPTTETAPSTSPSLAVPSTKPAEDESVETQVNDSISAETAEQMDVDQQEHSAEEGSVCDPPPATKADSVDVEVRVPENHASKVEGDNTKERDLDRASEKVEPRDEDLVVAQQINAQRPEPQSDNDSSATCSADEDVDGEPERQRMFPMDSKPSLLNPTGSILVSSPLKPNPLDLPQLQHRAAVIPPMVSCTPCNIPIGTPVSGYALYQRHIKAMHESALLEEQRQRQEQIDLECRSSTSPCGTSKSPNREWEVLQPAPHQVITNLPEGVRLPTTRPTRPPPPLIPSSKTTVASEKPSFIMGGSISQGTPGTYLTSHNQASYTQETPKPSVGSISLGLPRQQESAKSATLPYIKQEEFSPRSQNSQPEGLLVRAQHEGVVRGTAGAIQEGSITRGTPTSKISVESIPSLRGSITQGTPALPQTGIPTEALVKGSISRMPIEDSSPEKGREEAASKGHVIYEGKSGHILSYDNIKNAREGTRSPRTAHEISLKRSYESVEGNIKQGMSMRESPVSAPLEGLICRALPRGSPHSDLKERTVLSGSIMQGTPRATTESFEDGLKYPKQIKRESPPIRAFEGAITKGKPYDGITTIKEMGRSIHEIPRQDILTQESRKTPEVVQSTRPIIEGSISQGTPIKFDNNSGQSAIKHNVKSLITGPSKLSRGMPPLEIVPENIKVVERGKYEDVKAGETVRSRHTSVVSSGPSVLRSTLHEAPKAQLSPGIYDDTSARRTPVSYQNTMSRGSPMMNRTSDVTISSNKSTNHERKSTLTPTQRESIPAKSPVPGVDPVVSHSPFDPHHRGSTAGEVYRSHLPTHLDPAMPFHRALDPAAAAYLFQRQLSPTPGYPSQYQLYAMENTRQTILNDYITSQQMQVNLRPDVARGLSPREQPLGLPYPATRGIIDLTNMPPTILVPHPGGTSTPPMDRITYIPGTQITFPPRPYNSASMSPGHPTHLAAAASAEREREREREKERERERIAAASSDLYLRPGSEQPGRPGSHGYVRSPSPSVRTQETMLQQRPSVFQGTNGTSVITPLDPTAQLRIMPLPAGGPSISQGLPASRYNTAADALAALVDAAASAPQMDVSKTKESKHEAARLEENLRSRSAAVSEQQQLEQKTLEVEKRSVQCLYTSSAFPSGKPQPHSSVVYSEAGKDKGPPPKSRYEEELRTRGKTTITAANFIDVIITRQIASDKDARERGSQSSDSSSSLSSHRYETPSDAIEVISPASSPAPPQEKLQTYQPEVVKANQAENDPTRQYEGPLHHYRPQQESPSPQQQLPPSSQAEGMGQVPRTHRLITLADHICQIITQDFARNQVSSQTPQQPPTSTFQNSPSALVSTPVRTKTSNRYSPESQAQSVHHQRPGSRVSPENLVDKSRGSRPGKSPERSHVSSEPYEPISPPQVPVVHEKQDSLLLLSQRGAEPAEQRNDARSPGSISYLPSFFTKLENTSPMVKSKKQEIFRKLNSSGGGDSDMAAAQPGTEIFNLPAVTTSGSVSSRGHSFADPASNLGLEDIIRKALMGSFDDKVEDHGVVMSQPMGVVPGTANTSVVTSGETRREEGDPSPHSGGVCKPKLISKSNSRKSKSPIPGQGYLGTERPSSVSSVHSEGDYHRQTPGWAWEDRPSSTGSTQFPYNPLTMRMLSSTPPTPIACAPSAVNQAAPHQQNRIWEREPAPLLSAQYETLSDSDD
- Sequence (O60907 whole entry partner): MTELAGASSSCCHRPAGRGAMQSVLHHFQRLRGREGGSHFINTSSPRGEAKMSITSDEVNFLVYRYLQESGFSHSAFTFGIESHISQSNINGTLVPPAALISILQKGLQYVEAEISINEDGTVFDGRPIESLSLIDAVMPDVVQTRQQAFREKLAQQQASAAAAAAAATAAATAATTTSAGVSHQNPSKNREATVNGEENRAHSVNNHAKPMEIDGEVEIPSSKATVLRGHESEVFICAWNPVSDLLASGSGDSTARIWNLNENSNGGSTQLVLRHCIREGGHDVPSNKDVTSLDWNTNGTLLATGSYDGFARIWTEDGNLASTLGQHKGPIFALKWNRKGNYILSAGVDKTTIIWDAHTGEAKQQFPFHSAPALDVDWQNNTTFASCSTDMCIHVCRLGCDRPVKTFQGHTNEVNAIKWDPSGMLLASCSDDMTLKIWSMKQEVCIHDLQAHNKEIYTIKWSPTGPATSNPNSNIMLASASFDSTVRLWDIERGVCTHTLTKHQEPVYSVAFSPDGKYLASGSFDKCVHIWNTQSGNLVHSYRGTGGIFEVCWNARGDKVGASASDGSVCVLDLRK
- Sequence (Q9BZK7 whole entry partner): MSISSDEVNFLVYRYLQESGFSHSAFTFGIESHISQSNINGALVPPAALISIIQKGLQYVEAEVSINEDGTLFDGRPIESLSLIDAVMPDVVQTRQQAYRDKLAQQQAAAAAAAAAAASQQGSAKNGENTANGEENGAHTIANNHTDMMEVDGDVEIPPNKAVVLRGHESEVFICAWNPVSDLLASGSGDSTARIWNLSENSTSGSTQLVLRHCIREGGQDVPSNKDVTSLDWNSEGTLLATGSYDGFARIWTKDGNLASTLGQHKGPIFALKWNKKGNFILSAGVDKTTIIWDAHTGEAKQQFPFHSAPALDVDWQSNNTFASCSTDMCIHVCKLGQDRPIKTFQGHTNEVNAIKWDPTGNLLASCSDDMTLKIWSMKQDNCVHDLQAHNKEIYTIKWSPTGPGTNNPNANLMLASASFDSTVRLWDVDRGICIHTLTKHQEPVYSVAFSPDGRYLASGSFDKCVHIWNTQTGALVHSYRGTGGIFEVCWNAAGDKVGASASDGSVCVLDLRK
- Sequence (Q13227 whole entry partner): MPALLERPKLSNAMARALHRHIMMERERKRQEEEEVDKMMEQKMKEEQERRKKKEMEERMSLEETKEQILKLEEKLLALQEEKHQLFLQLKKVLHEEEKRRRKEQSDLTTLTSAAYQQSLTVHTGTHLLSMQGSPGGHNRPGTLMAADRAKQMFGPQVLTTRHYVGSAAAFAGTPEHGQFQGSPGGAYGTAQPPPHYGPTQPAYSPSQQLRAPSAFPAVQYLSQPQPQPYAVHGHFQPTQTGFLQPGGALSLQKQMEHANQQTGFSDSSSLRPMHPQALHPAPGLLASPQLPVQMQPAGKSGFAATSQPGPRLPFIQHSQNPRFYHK
- assay_name: Chemoproteomic binding profiling, K562 cell extract, SAHA/ITF2357 probe matrix (Kd app)
- test_settings: protein HDAC3; NCoR complex
property: Kd

>  <molecular_string>
CCCCOc1ccc(CC(=O)NO)cc1

>  <assay_target>
HDAC3 (Homo sapiens)

>  <property>
Kd

>  <observed_measurement>
348 µM

$$$$

Exercise: Can you look up the measured Kd of Nc1ccccc1NC(=O)CCCCCCC(=O)Nc1ccccc1 for me?
Solution: 7 µM

====

The following molecules are listed with their measured Kd values.
- System: CoREST complex
- assay_name: Chemoproteomic binding profiling, K562 cell extract, SAHA/ITF2357 probe matrix (Kd app)
- Set-up: species or system human
- test_settings: read-out: Kd^app RCOR2
Form entry: value (µM) — number only.

>  <molecule>
CC(=O)Nc1ccc(C(=O)Nc2ccccc2N)cc1 [tacedinaline]

>  <property>
Kd

>  <observed_measurement>
196

$$$$

Exercise: Entry Nc1ccccc1NC(=O)c1ccc(CNc2nccc(-c3cccnc3)n2)cc1 [Mocetinostat] has what Kd?
Solution: 103

====

Let's look at some compounds and their measured Kd.
- assay_target: HDAC3-NCoR complex (Homo sapiens, UniProt O15379)
- Sequence (O15379 whole entry, one chain of several): as the sequence (O15379 whole entry) above
- assay_name: Chemoproteomic binding profiling, K562 cell extract, SAHA/ITF2357 probe matrix (Kd app)
- test_settings: protein NCOR1, read-out: Kd^app NCOR1

>  <compound>
Nc1ccccc1NC(=O)CCCCCCC(=O)Nc1ccccc1 [BML-210]

>  <Kd>
7 µM

$$$$

Exercise: Name the recorded Kd for CCCCOc1ccc(CC(=O)NO)cc1 [bufexamac] .
Solution: > 59.7 µM

====

- assay_target: NOSIP (Homo sapiens)
- Construct: endogenous in cells
- Sequence (Q9Y314 1-301): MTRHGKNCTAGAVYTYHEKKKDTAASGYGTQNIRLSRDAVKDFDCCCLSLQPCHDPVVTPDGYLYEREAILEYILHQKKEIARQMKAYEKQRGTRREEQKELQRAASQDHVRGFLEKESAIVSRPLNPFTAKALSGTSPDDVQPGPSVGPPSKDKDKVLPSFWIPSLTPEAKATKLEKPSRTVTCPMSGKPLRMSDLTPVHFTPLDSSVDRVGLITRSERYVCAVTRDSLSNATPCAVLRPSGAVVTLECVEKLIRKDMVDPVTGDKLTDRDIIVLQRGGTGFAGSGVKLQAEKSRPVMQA
- assay_name: Competition binding assay in cell lysate, affinity matrix, MS
pIC50: −log10 of the molar value.
property: pIC50

Exercise: Please look up its pIC50: Nc1ccccc1NC(=O)c1ccc(CNC(=O)OCc2cccnc2)cc1
Solution: ≤ 3.52

====

- System: CoREST complex
- assay_name: Chemoproteomic binding profiling, K562 cell extract, SAHA/ITF2357 probe matrix (Kd app)
- Set-up: species or system human
- test_settings: read-out: Kd^app GSE1
property: pKd
Formally, pKd is defined as -log10 of the concentration c, with c in mol/L.

Solved cases (2 shown):
>  <molecule>
Nc1ccccc1NC(=O)c1ccc(CNc2nccc(-c3cccnc3)n2)cc1 [Mocetinostat]

>  <property>
pKd

>  <observed_measurement>
4.30

$$$$
>  <molecule>
CC(=O)Nc1ccc(C(=O)Nc2ccccc2N)cc1 [tacedinaline]

>  <property>
pKd

>  <observed_measurement>
3.91

$$$$

// moving on: another record for pKd
Exercise: Give its pKd value. Item: CC(/C=C/C(=O)NO)=C\[C@@H](C)C(=O)c1ccc(N(C)C)cc1 [Trichostatin A]
Solution: 8.40

====

- Tested on: MIER3
- assay_name: Chemoproteomic binding profiling, K562 cell extract, SAHA/ITF2357 probe matrix (Kd app), ELSA (ELM-SANT) domain protein
- Design: species or system human
- test_settings: ELSA (ELM-SANT) domain proteins
property: Kd

These recorded examples may help you get a feel for the data.
>  <compound>
Nc1ccccc1NC(=O)c1ccc(CNC(=O)OCc2cccnc2)cc1

>  <property>
Kd

>  <observed_measurement>
> 300 µM

$$$$
>  <compound>
O=C(CCCCCN1C(=O)c2cccc3cccc(c23)C1=O)NO

>  <property>
Kd

>  <observed_measurement>
0.32 µM

$$$$
>  <compound>
CCCC(CCC)C(=O)O [valproate, valproic acid]

>  <property>
Kd

>  <observed_measurement>
344 µM

$$$$
>  <compound>
O=C(/C=C/c1ccc(CN(CCO)CCc2c[nH]c3ccccc23)cc1)NO

>  <property>
Kd

>  <observed_measurement>
0.01 µM

$$$$

Kindly consider the entry below.
Exercise: Record request: Kd value, item CN(C)Cc1c(C(=O)NCCOc2ccc(C(=O)NO)cc2)oc2ccccc12
Solution: 0.02 µM

====

- Test system: RBBP7
- assay_name: Competition binding assay in cell lysate, affinity matrix, MS (Sin3/Mi2-NuRD interactor)
- test_settings: K-562 cell lysate
property: IC50 (µM)
Could you give me the number in µM? Just the number is fine.

As a guide, the following entries are already answered.
>  <compound>
O=C(CCCCCCC(=O)Nc1ccccc1)NO [SAHA, suberoylanilide hydroxamic acid]

>  <property>
IC50

>  <reading_unit>
µM

>  <observed_measurement>
10

$$$$
>  <compound>
Nc1ccccc1NC(=O)c1ccc(CNC(=O)OCc2cccnc2)cc1

>  <property>
IC50

>  <reading_unit>
µM

>  <observed_measurement>
300

$$$$

Next item in the queue.
Exercise: Given the compound CC(/C=C/C(=O)NO)=C\[C@@H](C)C(=O)c1ccc(N(C)C)cc1 , what is its reported IC50?
Solution: 0.18
